# Test: an = ratio of the nth substance listed, in mol/kg
# Setup conditions: 298.15 K; 101 kPa; Liquid; Sing-around technique in a fixed-path interferometer; a2 = 0
The entries below come with measured speed of sound values attached.
Your answer is read as m/s, so omit the unit and give the number.

Recorded results for 4 compounds are shown here.
* CC(=O)N(C)C [N,N-dimethylethanamide] + [Mn+2].[O-][Cl+3]([O-])([O-])[O-].[O-][Cl+3]([O-])([O-])[O-] | 1455.4
* CC(=O)N(C)C [N,N-dimethylethanamide] + [Cl][Co][Cl] | 1455.4
* C[S+](C)[O-] [dimethyl sulfoxide] + [Cl][Cu][Cl] | 1484.1
* C[S+](C)[O-] [dimethyl sulfoxide] + [Cl][Ni][Cl] | 1484.1

Input line: What does the record list as speed of sound for C[S+](C)[O-] [dimethyl sulfoxide] + [Cl][Mn][Cl] ?
Output line: 1484.1

* * *

# Test: an = ratio of the nth substance listed, in mol/kg
# Setup conditions: 298.15 K; 101 kPa; Liquid; Sing-around technique in a fixed-path interferometer; a2 = 0
Endpoint name: speed of sound (m/s)
All answers are understood in m/s, so give the number only.

Some molecules with known speed of sound results, for comparison:
* CC(=O)N(C)C [N,N-dimethylethanamide] + [Cu+2].[O-][Cl+3]([O-])([O-])[O-].[O-][Cl+3]([O-])([O-])[O-] | 1455.4
* C[S+](C)[O-] [dimethyl sulfoxide] + [Cu+2].[O-][Cl+3]([O-])([O-])[O-].[O-][Cl+3]([O-])([O-])[O-] | 1484.1
* C[S+](C)[O-] [dimethyl sulfoxide] + [Cl-].[Cl-].[Zn+2] | 1484.1
* CC(=O)N(C)C [N,N-dimethylethanamide] + [Cl][Ni][Cl] | 1455.4

Input line: // lookup speed of sound for C[S+](C)[O-] [dimethyl sulfoxide] + [Cl][Co][Cl]
Output line: 1484.1

Input line: // speed of sound lookup, key: CC(=O)N(C)C [N,N-dimethylethanamide] + [Cl][Cu][Cl]
Output line: 1455.4

Input line: Which speed of sound is listed for C[S+](C)[O-] [dimethyl sulfoxide] + [Ni+2].[O-][Cl+3]([O-])([O-])[O-].[O-][Cl+3]([O-])([O-])[O-] ?
Output line: 1484.1

Input line: speed of sound for CC(=O)N(C)C [N,N-dimethylethanamide] + [O-][Cl+3]([O-])([O-])[O-].[O-][Cl+3]([O-])([O-])[O-].[Zn+2] ?
Output line: 1455.4

* * *

# Test: an = ratio of the nth substance listed, in mol/kg
# Setup conditions: 298.15 K; 101 kPa; Liquid; Vibrating tube method; a2 = 0
Endpoint name: mass density (kg/m3)
Give the number; kg/m3 is assumed, so skip it.

Use these answered entries as a reference point.
- C[S+](C)[O-] [dimethyl sulfoxide] + [Cu+2].[O-][Cl+3]([O-])([O-])[O-].[O-][Cl+3]([O-])([O-])[O-]: 1095.2
- C[S+](C)[O-] [dimethyl sulfoxide] + [Ni+2].[O-][Cl+3]([O-])([O-])[O-].[O-][Cl+3]([O-])([O-])[O-]: 1095.19
- C[S+](C)[O-] [dimethyl sulfoxide] + [Cl][Cu][Cl]: 1095.2
- CC(=O)N(C)C [N,N-dimethylethanamide] + [Cu+2].[O-][Cl+3]([O-])([O-])[O-].[O-][Cl+3]([O-])([O-])[O-]: 936.11
- CC(=O)N(C)C [N,N-dimethylethanamide] + [Cl][Co][Cl]: 936.417
- C[S+](C)[O-] [dimethyl sulfoxide] + [Cl][Co][Cl]: 1095.19

# ---- query molecule ----
Input line: Record request: mass density value, item C[S+](C)[O-] [dimethyl sulfoxide] + [Cl][Mn][Cl]
Output line: 1095.19

* * *

Catalogue of speed of sound readings, one per entry.
# Test: an = ratio of the nth substance listed, in mol/kg
# Setup conditions: 298.15 K; 101 kPa; Liquid; Sing-around technique in a fixed-path interferometer; a2 = 0
Numbers after ± are expanded uncertainties.

* CC(=O)N(C)C [N,N-dimethylethanamide] + [Cl-].[Cl-].[Zn+2] | 1455.4 ± 1.2 m/s
* C[S+](C)[O-] [dimethyl sulfoxide] + [Co+2].[O-][Cl+3]([O-])([O-])[O-].[O-][Cl+3]([O-])([O-])[O-] | 1484.1 ± 1.2 m/s
* CC(=O)N(C)C [N,N-dimethylethanamide] + [Ni+2].[O-][Cl+3]([O-])([O-])[O-].[O-][Cl+3]([O-])([O-])[O-] | 1455.4 ± 1.2 m/s
* CC(=O)N(C)C [N,N-dimethylethanamide] + [Co+2].[O-][Cl+3]([O-])([O-])[O-].[O-][Cl+3]([O-])([O-])[O-] | 1455.4 ± 1.2 m/s
* CC(=O)N(C)C [N,N-dimethylethanamide] + [Cl][Mn][Cl] | 1455.4 ± 1.2 m/s

Input line: speed of sound lookup needed for C[S+](C)[O-] [dimethyl sulfoxide] + [O-][Cl+3]([O-])([O-])[O-].[O-][Cl+3]([O-])([O-])[O-].[Zn+2] , thanks.
Output line: 1484.1 ± 1.2 m/s

Input line: Field request: speed of sound | item: C[S+](C)[O-] [dimethyl sulfoxide] + [Mn+2].[O-][Cl+3]([O-])([O-])[O-].[O-][Cl+3]([O-])([O-])[O-]
Output line: 1484.1 ± 1.2 m/s
